# assay_procedure: Cytotoxicity against human PC3 cells assessed as cell growth inhibition at 30 uM after 48 hrs by MTT assay
# Assay type: functional
# condition_context: PC-3, 48 h, read-out: GI
Quick list: inhibition of growth at 30 µM per entry.
Quick reminder: number only, in %, skip the unit.

Exercise: Kindly indicate its recorded inhibition of growth at 30 µM. Item: `COc1ccc(/C=C/C(=O)c2ccc(OCCO[C@H]3O[C@@H]4O[C@@]5(C)CC[C@H]6[C@H](C)CC[C@@H]([C@H]3C)[C@@]46OO5)cc2)c(OC)c1`
Key: 38.2

Exercise: Kindly indicate its recorded inhibition of growth at 30 µM. Item: `C[C@H]1[C@@H](O)O[C@@H]2O[C@@]3(C)CC[C@H]4[C@H](C)CC[C@@H]1[C@@]24OO3`
Key: 41

Exercise: Kindly indicate its recorded inhibition of growth at 30 µM. Item: `C[C@H]1[C@@H](OCCOc2ccc(/C=C/C(=O)c3ccc(OCCO[C@H]4O[C@@H]5O[C@@]6(C)CC[C@H]7[C@H](C)CC[C@@H]([C@H]4C)[C@@]57OO6)cc3)cc2)O[C@@H]2O[C@@]3(C)CC[C@H]4[C@H](C)CC[C@@H]1[C@@]24OO3`
Key: 44.2

* * *

# assay_procedure: Cytotoxicity against human HL60 cells assessed as cell growth inhibition at 30 uM after 48 hrs by MTT assay
# Format: functional
# condition_context: HL-60, 48 h, read-out: GI
measured_endpoint: inhibition of growth at 30 µM (%)
Quick reminder: number only, in %, skip the unit.

C[C@H]1[C@@H](OCCOc2ccc(/C=C/C(=O)c3ccco3)cc2)O[C@@H]2O[C@@]3(C)CC[C@H]4[C@H](C)CC[C@@H]1[C@@]24OO3	89.1
C[C@H]1[C@@H](OCCOc2ccc(/C=C/C(=O)c3ccccc3Cl)cc2)O[C@@H]2O[C@@]3(C)CC[C@H]4[C@H](C)CC[C@@H]1[C@@]24OO3	91.8
COc1ccc(C(=O)/C=C/c2ccc(OCCO[C@H]3O[C@@H]4O[C@@]5(C)CC[C@H]6[C@H](C)CC[C@@H]([C@H]3C)[C@@]46OO5)cc2)cc1Cl	93.4
C[C@@H]1CC[C@H]2[C@@H](C)C(=O)O[C@@H]3O[C@@]4(C)CC[C@@H]1[C@]32OO4 [ARTEMISININ]	14.4
C[C@H]1[C@@H](OCCOc2ccc(/C=C/C(=O)c3cccc(O)c3)cc2)O[C@@H]2O[C@@]3(C)CC[C@H]4[C@H](C)CC[C@@H]1[C@@]24OO3	77.7
C[C@H]1[C@@H](OCCOc2cccc(C(=O)/C=C/c3ccc(O)cc3)c2)O[C@@H]2O[C@@]3(C)CC[C@H]4[C@H](C)CC[C@@H]1[C@@]24OO3	93.3
C[C@H]1[C@@H](OCCOc2cccc(C(=O)/C=C/c3cn(CCO[C@H]4O[C@@H]5O[C@@]6(C)CC[C@H]7[C@H](C)CC[C@@H]([C@H]4C)[C@@]57OO6)c4ccccc34)c2)O[C@@H]2O[C@@]3(C)CC[C@H]4[C@H](C)CC[C@@H]1[C@@]24OO3	81.5
COc1ccc(C(=O)/C=C/c2ccc(OCCO[C@H]3O[C@@H]4O[C@@]5(C)CC[C@H]6[C@H](C)CC[C@@H]([C@H]3C)[C@@]46OO5)cc2)c(OC)c1	89.3
COc1ccc(/C=C/C(=O)c2ccc(OCCO[C@H]3O[C@@H]4O[C@@]5(C)CC[C@H]6[C@H](C)CC[C@@H]([C@H]3C)[C@@]46OO5)cc2)c(OC)c1	83.5

Exercise: Kindly indicate its recorded inhibition of growth at 30 µM. Item: `COc1cc(/C=C/C(=O)c2ccc(OCCO[C@H]3O[C@@H]4O[C@@]5(C)CC[C@H]6[C@H](C)CC[C@@H]([C@H]3C)[C@@]46OO5)cc2)cc(OC)c1OCCO[C@H]1O[C@@H]2O[C@@]3(C)CC[C@H]4[C@H](C)CC[C@@H]([C@H]1C)[C@@]24OO3`
Key: 85.4

* * *

# assay_procedure: Cytotoxicity against human LS180 cells assessed as cell growth inhibition at 30 uM after 48 hrs by MTT assay
# Assay type: functional
# condition_context: LS180, 48 h, read-out: GI
Quick list: inhibition of growth at 30 µM per entry.
Quick reminder: number only, in %, skip the unit.

COc1cc(/C=C/C(=O)c2ccc(OCCO[C@H]3O[C@@H]4O[C@@]5(C)CC[C@H]6[C@H](C)CC[C@@H]([C@H]3C)[C@@]46OO5)cc2)cc(OC)c1OCCO[C@H]1O[C@@H]2O[C@@]3(C)CC[C@H]4[C@H](C)CC[C@@H]([C@H]1C)[C@@]24OO3	58.1

Continue with the compound presented below.
Exercise: Kindly indicate its recorded inhibition of growth at 30 µM. Item: `C[C@H]1[C@@H](OCCOc2ccc(/C=C/C(=O)c3ccco3)cc2)O[C@@H]2O[C@@]3(C)CC[C@H]4[C@H](C)CC[C@@H]1[C@@]24OO3`
Key: 26.9

* * *

# assay_procedure: Cytotoxicity against human MIAPaCa2 cells assessed as cell growth inhibition at 50 uM after 48 hrs by MTT assay
# Type: functional
# condition_context: MIA PaCa-2, 48 h, read-out: GI
Quick list: inhibition of growth at 50 µM per entry.
Quick reminder: number only, in %, skip the unit.

Illustrative cases are given below, each with its answer.
C[C@H]1[C@@H](OCCOc2ccc(C(=O)/C=C/c3c[nH]c4ccccc34)cc2)O[C@@H]2O[C@@]3(C)CC[C@H]4[C@H](C)CC[C@@H]1[C@@]24OO3	49.4
COc1ccc(/C=C/C(=O)c2ccc(OCCO[C@H]3O[C@@H]4O[C@@]5(C)CC[C@H]6[C@H](C)CC[C@@H]([C@H]3C)[C@@]46OO5)cc2)c(OC)c1	41.7
C[C@H]1[C@@H](OCCOc2ccc(/C=C/C(=O)c3ccc(Cl)s3)cc2)O[C@@H]2O[C@@]3(C)CC[C@H]4[C@H](C)CC[C@@H]1[C@@]24OO3	59.7
C[C@H]1[C@@H](OCCOc2cccc(C(=O)/C=C/c3ccc(O)cc3)c2)O[C@@H]2O[C@@]3(C)CC[C@H]4[C@H](C)CC[C@@H]1[C@@]24OO3	88.6
Cc1cc(C(=O)/C=C/c2ccc(OCCO[C@H]3O[C@@H]4O[C@@]5(C)CC[C@H]6[C@H](C)CC[C@@H]([C@H]3C)[C@@]46OO5)cc2)ccc1OCCO[C@H]1O[C@@H]2O[C@@]3(C)CC[C@H]4[C@H](C)CC[C@@H]([C@H]1C)[C@@]24OO3	49.2

Exercise: Kindly indicate its recorded inhibition of growth at 50 µM. Item: `C[C@H]1[C@@H](OCCOc2ccc(/C=C/C(=O)c3cccc(O)c3)cc2)O[C@@H]2O[C@@]3(C)CC[C@H]4[C@H](C)CC[C@@H]1[C@@]24OO3`
Key: 51.1

Exercise: Kindly indicate its recorded inhibition of growth at 50 µM. Item: `C[C@H]1[C@@H](OCCOc2ccc(/C=C/C(=O)c3ccccc3Cl)cc2)O[C@@H]2O[C@@]3(C)CC[C@H]4[C@H](C)CC[C@@H]1[C@@]24OO3`
Key: 61.1

Exercise: Kindly indicate its recorded inhibition of growth at 50 µM. Item: `C[C@H]1[C@@H](OCCOc2ccc(/C=C/C(=O)c3cc4ccccc4o3)cc2)O[C@@H]2O[C@@]3(C)CC[C@H]4[C@H](C)CC[C@@H]1[C@@]24OO3`
Key: 62.3

Exercise: Kindly indicate its recorded inhibition of growth at 50 µM. Item: `C[C@H]1[C@@H](OCCOc2ccc(/C=C/C(=O)c3ccco3)cc2)O[C@@H]2O[C@@]3(C)CC[C@H]4[C@H](C)CC[C@@H]1[C@@]24OO3`
Key: 77.5

Exercise: Kindly indicate its recorded inhibition of growth at 50 µM. Item: `C[C@@H]1CC[C@H]2[C@@H](C)C(=O)O[C@@H]3O[C@@]4(C)CC[C@@H]1[C@]32OO4`
Key: 18

Exercise: Kindly indicate its recorded inhibition of growth at 50 µM. Item: `COc1ccc(C(=O)/C=C/c2ccc(OCCO[C@H]3O[C@@H]4O[C@@]5(C)CC[C@H]6[C@H](C)CC[C@@H]([C@H]3C)[C@@]46OO5)cc2)cc1Cl`
Key: 52.2

Exercise: Kindly indicate its recorded inhibition of growth at 50 µM. Item: `C[C@H]1[C@@H](OCCOc2cccc(C(=O)/C=C/c3cn(CCO[C@H]4O[C@@H]5O[C@@]6(C)CC[C@H]7[C@H](C)CC[C@@H]([C@H]4C)[C@@]57OO6)c4ccccc34)c2)O[C@@H]2O[C@@]3(C)CC[C@H]4[C@H](C)CC[C@@H]1[C@@]24OO3`
Key: 49.4

* * *

# assay_procedure: Cytotoxicity against human LS180 cells assessed as cell growth inhibition at 30 uM after 48 hrs by MTT assay
# Type: functional
# condition_context: LS180, 48 h, read-out: GI
measured_endpoint: inhibition of growth at 30 µM (%)
Quick reminder: number only, in %, skip the unit.

Exercise: Kindly indicate its recorded inhibition of growth at 30 µM. Item: `C[C@H]1[C@@H](OCCOc2ccc(/C=C/C(=O)c3ccccc3Cl)cc2)O[C@@H]2O[C@@]3(C)CC[C@H]4[C@H](C)CC[C@@H]1[C@@]24OO3`
Key: 56.7

Exercise: Kindly indicate its recorded inhibition of growth at 30 µM. Item: `C[C@H]1[C@@H](OCCOc2ccc(/C=C/C(=O)c3cc4ccccc4o3)cc2)O[C@@H]2O[C@@]3(C)CC[C@H]4[C@H](C)CC[C@@H]1[C@@]24OO3`
Key: 37.6

Exercise: Kindly indicate its recorded inhibition of growth at 30 µM. Item: `C[C@@H]1CC[C@H]2[C@@H](C)C(=O)O[C@@H]3O[C@@]4(C)CC[C@@H]1[C@]32OO4`
Key: 13.4

Exercise: Kindly indicate its recorded inhibition of growth at 30 µM. Item: `COc1ccc(C(=O)/C=C/c2ccc(OCCO[C@H]3O[C@@H]4O[C@@]5(C)CC[C@H]6[C@H](C)CC[C@@H]([C@H]3C)[C@@]46OO5)cc2)c(OC)c1`
Key: 63.3

Exercise: Kindly indicate its recorded inhibition of growth at 30 µM. Item: `C[C@H]1[C@@H](OCCOc2ccc(/C=C/C(=O)c3ccc(O)cc3)cc2)O[C@@H]2O[C@@]3(C)CC[C@H]4[C@H](C)CC[C@@H]1[C@@]24OO3`
Key: 55.2

Exercise: Kindly indicate its recorded inhibition of growth at 30 µM. Item: `COc1ccc(/C=C/C(=O)c2ccc(OCCO[C@H]3O[C@@H]4O[C@@]5(C)CC[C@H]6[C@H](C)CC[C@@H]([C@H]3C)[C@@]46OO5)cc2)c(OC)c1`
Key: 27.5
